assay: Aqueous solubility at pH 7.5 after 24 hrs by HPLC; assay type: physicochemical
Exercise: for every item that follows, state its recorded solubility at 24 h.
Supply the numeric figure in mM, leaving out any unit text.

The compound listed as "COc1cc2c3c(n(CCCN(C)C)c(=O)c2cc1OC)-c1ncccc1C3=O" has a reported solubility at 24 h of 100

The compound listed as "COc1cc2c3c(n(CCCN(C)C)c(=O)c2cc1OC)-c1ccccc1C3=O" has a reported solubility at 24 h of 60

The compound listed as "CN(C)CCCn1c2c(c3ccccc3c1=O)C(=O)c1ccccc1-2" has a reported solubility at 24 h of 0.28

The compound listed as "CN(C)CCCn1c2c(c3ccccc3c1=O)C(=O)c1cccnc1-2" has a reported solubility at 24 h of 24

* * *

Exercise: for every item that follows, state its recorded log10(GI50).
tested on: HCT-116; test: Cytotoxicity against human HCT116 cells after 48 hrs by SRB assay; type: functional; settings: HCT-116, 48 h
// stored as log10 of GI50 expressed in nM

The compound listed as "O=C1c2cccnc2-c2c1c1ccccc1c(=O)n2CCCNCCO" has a reported log10(GI50) of 2.48

The compound listed as "COc1cc2c3c(n(CCCNCCO)c(=O)c2cc1OC)-c1ncccc1C3=O" has a reported log10(GI50) of 2.18

The compound listed as "O=C1c2cccnc2-c2c1c1ccccc1c(=O)n2CCCn1ccnc1" has a reported log10(GI50) of 3.08

The compound listed as "CN(C)CCCn1c2c(c3ccccc3c1=O)C(=O)c1cccnc1-2" has a reported log10(GI50) of 2.61

The compound listed as "COc1cc2c3c(n(CCCN)c(=O)c2cc1OC)-c1ncccc1C3=O" has a reported log10(GI50) of 2.58

The compound listed as "COc1cc2c3c(n(CCCN(C)C)c(=O)c2cc1OC)-c1ncccc1C3=O" has a reported log10(GI50) of 3.20

The compound listed as "COc1cc2c3c(n(CCCN4CCOCC4)c(=O)c2cc1OC)-c1ncccc1C3=O" has a reported log10(GI50) of 2.34

The compound listed as "O=C1c2cccnc2-c2c1c1ccccc1c(=O)n2CCCN1CCOCC1" has a reported log10(GI50) of 3.27

The compound listed as "COc1cc2c3c(n(C)c(=O)c2cc1OC)-c1cc2c(cc1C3=O)OCO2" has a reported log10(GI50) of 4.06

The compound listed as "CN(C)CCCn1c2c(c3ccc([N+](=O)[O-])cc3c1=O)C(=O)c1cccnc1-2" has a reported log10(GI50) of 2.64

* * *

biological target: DNA topoisomerase 1 (Homo sapiens) (UniProt P11387); test: Inhibition of human topoisomerase 1 assessed as inhibition of radiolabeled DNA fragment cleavage 0.1 to 100 uM after 20 mins by gel-based phosphoimaging relative to control
Sequence (P11387 whole entry, the tested form may be a part): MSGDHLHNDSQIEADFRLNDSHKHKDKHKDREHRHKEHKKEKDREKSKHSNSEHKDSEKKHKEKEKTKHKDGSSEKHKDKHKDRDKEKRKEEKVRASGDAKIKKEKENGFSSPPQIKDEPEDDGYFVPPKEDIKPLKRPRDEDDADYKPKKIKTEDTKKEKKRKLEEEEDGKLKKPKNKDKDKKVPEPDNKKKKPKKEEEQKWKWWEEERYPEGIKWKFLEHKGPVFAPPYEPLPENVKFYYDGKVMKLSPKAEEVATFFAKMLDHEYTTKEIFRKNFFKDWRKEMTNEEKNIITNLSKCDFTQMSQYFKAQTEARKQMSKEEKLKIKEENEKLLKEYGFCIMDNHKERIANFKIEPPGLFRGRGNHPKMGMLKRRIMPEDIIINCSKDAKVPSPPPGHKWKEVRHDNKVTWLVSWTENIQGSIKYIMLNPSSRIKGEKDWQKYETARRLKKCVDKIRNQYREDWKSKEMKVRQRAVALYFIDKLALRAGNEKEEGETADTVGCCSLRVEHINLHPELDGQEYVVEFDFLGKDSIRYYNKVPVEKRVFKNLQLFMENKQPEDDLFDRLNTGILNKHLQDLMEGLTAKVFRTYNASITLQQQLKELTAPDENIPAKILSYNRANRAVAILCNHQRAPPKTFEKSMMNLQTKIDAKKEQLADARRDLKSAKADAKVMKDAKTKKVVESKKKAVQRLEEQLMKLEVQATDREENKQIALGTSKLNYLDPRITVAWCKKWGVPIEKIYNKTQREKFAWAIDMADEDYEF
Activity calls are given as the source filed them. The calls are words filed in the database; no cut-off is given here.
Hello, when you answer, please use one of the following outcomes: active, inactive

## Input I would be grateful if you could indicate the recorded call for "O=C1c2cccnc2-c2c1c1ccccc1c(=O)n2CCCNCCO" .
## Output inactive

## Input I would be grateful if you could indicate the recorded call for "COc1cc2c3c(n(CCCn4ccnc4)c(=O)c2cc1OC)-c1ncccc1C3=O" .
## Output active

## Input I would be grateful if you could indicate the recorded call for "CN(C)CCCn1c2c(c3ccc([N+](=O)[O-])cc3c1=O)C(=O)c1ccccc1-2" .
## Output active

## Input I would be grateful if you could indicate the recorded call for "CN(C)CCCn1c2c(c3ccc([N+](=O)[O-])cc3c1=O)C(=O)c1cccnc1-2" .
## Output active

## Input I would be grateful if you could indicate the recorded call for "O=C1c2cccnc2-c2c1c1ccccc1c(=O)n2CCCn1ccnc1" .
## Output active

## Input I would be grateful if you could indicate the recorded call for "CN(C)CCCn1c2c(c3ccccc3c1=O)C(=O)c1ccccc1-2" .
## Output active

## Input I would be grateful if you could indicate the recorded call for "O=C1c2cccnc2-c2c1c1ccccc1c(=O)n2CCCN1CCOCC1" .
## Output active

## Input I would be grateful if you could indicate the recorded call for "COc1cc2c3c(n(CCCNCCO)c(=O)c2cc1OC)-c1ncccc1C3=O" .
## Output active

## Input I would be grateful if you could indicate the recorded call for "CN(C)CCCn1c2c(c3ccccc3c1=O)C(=O)c1cccnc1-2" .
## Output active

## Input I would be grateful if you could indicate the recorded call for "COc1cc2c3c(n(CCCN)c(=O)c2cc1OC)-c1ncccc1C3=O" .
## Output active
